# melting point annotations

# Chemical structure, melting point
records = [
    ("COc1n[nH]c2ccc(-c3ccnc(NC(=O)Nc4ccc(F)cc4)c3)cc12", "229 to 232 °C"),
    ("COc1n[nH]c2ccc(-c3ccnc(NC(=O)NCCc4ccc(F)cc4)c3)cc12", "209 to 212 °C"),
    ("COc1n[nH]c2ccc(-c3ccnc(NC(=O)NCc4ccccc4)c3)cc12", "230 to 233 °C"),
    ("O=C(Nc1ccccc1)Nc1cc(-c2ccc3cncnc3c2)ccn1", "332 to 335 °C"),
    ("O=C(NCCc1ccc(F)cc1)Nc1cc(-c2ccc3cncnc3c2)ccn1", "214 to 217 °C"),
    ("COc1ccc(NC(=O)Nc2cc(-c3ccc4[nH]nc(OC)c4c3)ccn2)cc1", "240 to 242 °C"),
    ("O=C(Nc1ccc(F)c(Cl)c1)Nc1cc(-c2ccc3cncnc3c2)ccn1", "318 to 321 °C"),
    ("COc1n[nH]c2ccc(-c3ccnc(NC(=O)NCCc4ccccc4F)c3)cc12", "208 to 211 °C"),
    ("O=C(Nc1cc(-c2ccc3cncnc3c2)ccn1)NC1CCCC1", "223 to 226 °C"),
    ("COc1n[nH]c2ccc(-c3ccnc(NC(=O)NCCc4ccccc4)c3)cc12", "200 to 203 °C"),
    ("COc1n[nH]c2ccc(-c3ccnc(NC(=O)Nc4cccc(F)c4)c3)cc12", "229 to 232 °C"),
]
